assay: NCI Yeast Anticancer Drug Screen. Data for the bub3 strain (AID 167); details: S. cerevisiae bub3 mutant strain, at 5.0 µM (retest, dose inferred, filed as 0.5), stronger effect = higher value
About 79,000 compounds went through this panel and 15% of them were active in at least one assay; those are over-represented in the sample as a whole.
EXPERIMENTAL READOUT: growth inhibition (%)
// return numeric value only (unit: %, not printed)

[
  {
    "MOLECULE": "Oc1cc(CNCc2ccccc2)c(O)c(CNCc2ccccc2)c1",
    "UNITS OF MEASURE": "%",
    "growth inhibition": -1
  },
  {
    "MOLECULE": "C1C[OH+]CC[OH+]CCNCC[OH+]CC[OH+]CCN1.[Cl-].[Pt+4]",
    "UNITS OF MEASURE": "%",
    "growth inhibition": 10
  },
  {
    "MOLECULE": "CCCCN1CSC(=S)N(Cc2ccccc2)C1",
    "UNITS OF MEASURE": "%",
    "growth inhibition": 5
  },
  {
    "MOLECULE": "Cc1ccc2c(ccc3ccccc32)c1",
    "UNITS OF MEASURE": "%",
    "growth inhibition": -15
  },
  {
    "MOLECULE": "O=Cc1ccc2cc(Cl)ccc2n1",
    "UNITS OF MEASURE": "%",
    "growth inhibition": -71
  }
]

Would you kindly look at the next entry?
Request: // growth inhibition lookup, key: [Cl][Sn]([O][Sn]([Cl])([c]1ccccc1)[CH]1CCCCC1)([c]1ccccc1)[CH]1CCCCC1 (stereo not given)
Result: 2

----------
Here, each record is paired with measured growth inhibition data.
assay: NCI Yeast Anticancer Drug Screen. Data for the sgs1 mgt1 strain (AID 161);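 further: 0% = growth of cultures given vehicle only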; conditions: S. cerevisiae sgs1 mgt1 strain, at 5.0 µM (retest, dose inferred, filed as 0.5), stronger effect = higher value
The panel holds about 79,000 compounds, 15% with a hit somewhere; the sample as a whole holds those more often.
Reply with just the number (in %).

Illustrative cases are given below, each with its answer.
[
  {
    "COMPOUND": "Cc1ccc(NC(=O)COC(=O)c2cccc3c(=O)c4ccccc4[nH]c23)cc1",
    "UNITS OF MEASURE": "%",
    "growth inhibition": 40
  },
  {
    "COMPOUND": "CC(SC1=CC(=O)c2c(O)ccc(O)c2C1=O)C(=O)O (stereo not given)",
    "UNITS OF MEASURE": "%",
    "growth inhibition": 19
  }
]

Here is another compound to look at.
Request: Any idea what growth inhibition was measured for CSC(=S)n1nc(-c2ccccc2)c(N=Nc2ccc(Br)cc2)c1-c1ccccc1 ?
Result: 5

----------
assay: NCI Yeast Anticancer Drug Screen. Data for the mlh1 rad18 strain (AID 175); details: S. cerevisiae mlh1 rad18 strain growth inhibition; at 5.0 µM (retest, dose inferred, filed as 0.5); stronger effect = higher value
About 79,000 compounds went through this panel and 15% of them were active in at least one assay; those are over-represented in the sample as a whole.
EXPERIMENTAL READOUT: growth inhibition (%)
Note: unit % is implicit; provide only the numeric part.

A selection of reference data follows.
[
  {
    "COMPOUND": "COC1=CC(=O)c2c(ccc3ncnc(N)c23)C1=O",
    "EXPERIMENTAL READOUT": "growth inhibition",
    "OBSERVED VALUE": 13
  },
  {
    "COMPOUND": "c1ccc(CCCCc2ccncc2)cc1",
    "EXPERIMENTAL READOUT": "growth inhibition",
    "OBSERVED VALUE": -3
  },
  {
    "COMPOUND": "O=C1C=CC(=O)N1c1ccc(-c2ccc(N3C(=O)C=CC3=O)cc2)cc1",
    "EXPERIMENTAL READOUT": "growth inhibition",
    "OBSERVED VALUE": 58
  },
  {
    "COMPOUND": "COC(=O)C1(C)CCCC2(C)C3CC(=O)C(C(C)C)=CC3(O)CCC12 (stereo not given)",
    "EXPERIMENTAL READOUT": "growth inhibition",
    "OBSERVED VALUE": 15
  },
  {
    "COMPOUND": "Cc1c2ccccc2c(C)c2c1cc(F)c1ccccc12",
    "EXPERIMENTAL READOUT": "growth inhibition",
    "OBSERVED VALUE": 55
  }
]

Request: Quick check: growth inhibition of CC(=O)N(N)c1ccccc1 ?
Result: 20

Request: Query: growth inhibition; subject: COc1nc(N)c(N=O)c(OCc2ccccc2)n1
Result: 99
